test system: MKL-1 cells (VP-MCC); assay: qHTS cell viability (CellTiter-Glo, 72 h; primary and follow-up small molecule screen); assay type: cell-based, human; settings: MKL1, 72h, Log (M) -5.81358
The following compounds are shown together with reported Percent viability values.
Report the value in % with no unit label.

These solved cases illustrate the format of a correct answer.
CCn1cc(-c2ccnc3[nH]c(-c4cccc(CN(C)C)c4)cc23)c(-c2ccc(NC(=O)N(C)C)cc2)n1 [GSK-1070916A, reference compound] : 0.7
Cc1cc(Nc2cc(N3CCN(C)CC3)nc(Sc3ccc(NC(=O)C4CC4)cc3)n2)[nH]n1 [Tozasertib, reference compound] : 29.2
O=C(Nc1cccc(Cl)c1)Nc1ncc(CCNc2ncnc3ccsc23)s1 [SNS-314, reference compound] : 37.4

Could you now look at the following compound, please?
Prompt line: Give Percent viability for CCS(=O)(=O)c1cccc(-c2cc(C(=O)NC3CCN(C)CC3)c(C)c3[nH]c4ncc(C)cc4c23)c1 [TAK-901, reference compound]
Response line: 27.5

* * *

test system: UISO cells (VN-MCC); test: qHTS cell viability (CellTiter-Glo, 72 h; primary and follow-up small molecule screen); format: cell-based, human; details: follow-up screen; UISO; replicate 2
# note: exactly 400 is not below, so it is -1; use 1 for Area under the dose-response curve (AUC) UISO Replicate 2 strictly under it

Answered cases to consult:
COc1ccc2cc3[n+](cc2c1OC)CCc1cc2c(cc1-3)OCO2 : 1
CC[C@@]1(O)C(=O)OCc2c1cc1n(c2=O)Cc2cc3ccccc3nc2-1 : 1
O=c1c(O)c(-c2ccccc2)oc2cc(O)cc(O)c12 [GALANGIN] : -1

Prompt line: Consider the compound COc1cc(/C=C2\CCC/C(=C\c3ccc(O)c(OC)c3)C2=O)ccc1O . Is its Area under the dose-response curve (AUC) UISO Replicate 2 strictly less than 400?
Response line: -1

Prompt line: Consider the compound CC[C@H]1CN2CCc3cc(OC)c(OC)cc3[C@@H]2C[C@@H]1C[C@H]1NCCc2cc(OC)c(OC)cc21 . Is its Area under the dose-response curve (AUC) UISO Replicate 2 strictly less than 400?
Response line: 1

* * *

system: UISO cells (VN-MCC); assay: qHTS cell viability (CellTiter-Glo, 72 h; primary and follow-up small molecule screen); format: cell-based, human; settings: follow-up screen; UISO; replicate 1
Structures can show the parent of a compound that is named as a salt.
MEASURED_PARAMETER: Area under the dose-response curve (AUC) UISO Replicate 1
Answer with a bare number; do not write a unit.

These solved cases illustrate the format of a correct answer.
CN1CCCC(n2nc(Cc3ccc(Cl)cc3)c3ccccc3c2=O)CC1 (centres unmarked) [Azelastine hydrochloride] : 472.1
C[C@H]1CCC/C=C/[C@@H]2C[C@H](O)C[C@H]2[C@H](O)/C=C/C(=O)O1 : 206.3
O=c1c(O)c(-c2ccccc2)oc2cc(O)cc(O)c12 [Galangin] : 481.0
O=C(CCc1ccc(O)cc1)c1c(O)cc(O)cc1O : 542.5
CC(=O)O[C@]1(C(C)=O)CC[C@H]2[C@@H]3C=C(C)C4=CC(=O)CC[C@]4(C)[C@H]3CC[C@@]21C [Megestrol acetate] : 487.9

Prompt line: Give Area under the dose-response curve (AUC) UISO Replicate 1 for CC[C@H]1CN2CCc3cc(OC)c(OC)cc3[C@@H]2C[C@@H]1C[C@H]1NCCc2cc(OC)c(OC)cc21
Response line: 267.1

Prompt line: Give Area under the dose-response curve (AUC) UISO Replicate 1 for COc1cc(/C=C2\CCC/C(=C\c3ccc(O)c(OC)c3)C2=O)ccc1O
Response line: 445.7

Prompt line: Give Area under the dose-response curve (AUC) UISO Replicate 1 for CCCCCCCCCCCC1=C(O)C(=O)C=C(O)C1=O
Response line: 471.2
